- Target Or System: human IR (hIR) (Homo sapiens)
- Construct: containing amino acid residues 979-1382 of human IR; made in house; host or cells: Sf9 cells (baculovirus), same process as hIGF1R
- Sequence (P06213 979-1382): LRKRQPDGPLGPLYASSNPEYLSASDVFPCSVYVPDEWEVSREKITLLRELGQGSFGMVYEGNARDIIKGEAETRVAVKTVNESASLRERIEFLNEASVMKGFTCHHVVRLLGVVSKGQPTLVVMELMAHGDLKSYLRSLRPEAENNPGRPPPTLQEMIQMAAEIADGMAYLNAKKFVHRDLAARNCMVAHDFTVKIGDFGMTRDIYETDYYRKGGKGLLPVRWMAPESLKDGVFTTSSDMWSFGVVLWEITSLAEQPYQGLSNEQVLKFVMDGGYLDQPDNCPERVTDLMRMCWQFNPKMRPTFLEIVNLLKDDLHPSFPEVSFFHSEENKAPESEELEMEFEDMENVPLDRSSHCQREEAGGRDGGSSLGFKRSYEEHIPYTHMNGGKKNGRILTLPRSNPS
- Assay Notes: TR-FRET kinase assay of purified hIR
- Assay type: biochemical
- Setup Conditions: activated hIR 0.5 nM, 10 μM ATP, values given as pIC50 category
Value Type: IC50

Please review the entries below; each comes with its answer.
1. CCCN1CCC=C(c2ccc(OC)c(Nc3nc(Nc4ccc(F)cc4C(N)=O)c4cc[nH]c4n3)c2)C1
0.251 to 1 nM
2. COc1cc(C)c(N(C)C(=O)CN(C)C)cc1Nc1nc(Nc2cccc(F)c2C(N)=O)c2cc[nH]c2n1
5.01 to 158 nM
3. CCCN1CCCC(c2ccc(Nc3nc(Nc4cccc(OC)c4C(N)=O)c4cc[nH]c4n3)c(OC)c2)C1 (stereo not shown)
1.26 to 3.98 nM

Please look at the following compound next.
What does the record list as IC50 for `CCN(CCO)CC(=O)N1CCc2cc(OC)c(Nc3nc(Nc4cccc(F)c4C(N)=O)c4cc[nH]c4n3)cc21` ?
1.26 to 3.98 nM

----------
- Target Or System: NIH-3T3 cells overexpressing human IGF-1R (Homo sapiens)
- Sequence (P08069 31-1367): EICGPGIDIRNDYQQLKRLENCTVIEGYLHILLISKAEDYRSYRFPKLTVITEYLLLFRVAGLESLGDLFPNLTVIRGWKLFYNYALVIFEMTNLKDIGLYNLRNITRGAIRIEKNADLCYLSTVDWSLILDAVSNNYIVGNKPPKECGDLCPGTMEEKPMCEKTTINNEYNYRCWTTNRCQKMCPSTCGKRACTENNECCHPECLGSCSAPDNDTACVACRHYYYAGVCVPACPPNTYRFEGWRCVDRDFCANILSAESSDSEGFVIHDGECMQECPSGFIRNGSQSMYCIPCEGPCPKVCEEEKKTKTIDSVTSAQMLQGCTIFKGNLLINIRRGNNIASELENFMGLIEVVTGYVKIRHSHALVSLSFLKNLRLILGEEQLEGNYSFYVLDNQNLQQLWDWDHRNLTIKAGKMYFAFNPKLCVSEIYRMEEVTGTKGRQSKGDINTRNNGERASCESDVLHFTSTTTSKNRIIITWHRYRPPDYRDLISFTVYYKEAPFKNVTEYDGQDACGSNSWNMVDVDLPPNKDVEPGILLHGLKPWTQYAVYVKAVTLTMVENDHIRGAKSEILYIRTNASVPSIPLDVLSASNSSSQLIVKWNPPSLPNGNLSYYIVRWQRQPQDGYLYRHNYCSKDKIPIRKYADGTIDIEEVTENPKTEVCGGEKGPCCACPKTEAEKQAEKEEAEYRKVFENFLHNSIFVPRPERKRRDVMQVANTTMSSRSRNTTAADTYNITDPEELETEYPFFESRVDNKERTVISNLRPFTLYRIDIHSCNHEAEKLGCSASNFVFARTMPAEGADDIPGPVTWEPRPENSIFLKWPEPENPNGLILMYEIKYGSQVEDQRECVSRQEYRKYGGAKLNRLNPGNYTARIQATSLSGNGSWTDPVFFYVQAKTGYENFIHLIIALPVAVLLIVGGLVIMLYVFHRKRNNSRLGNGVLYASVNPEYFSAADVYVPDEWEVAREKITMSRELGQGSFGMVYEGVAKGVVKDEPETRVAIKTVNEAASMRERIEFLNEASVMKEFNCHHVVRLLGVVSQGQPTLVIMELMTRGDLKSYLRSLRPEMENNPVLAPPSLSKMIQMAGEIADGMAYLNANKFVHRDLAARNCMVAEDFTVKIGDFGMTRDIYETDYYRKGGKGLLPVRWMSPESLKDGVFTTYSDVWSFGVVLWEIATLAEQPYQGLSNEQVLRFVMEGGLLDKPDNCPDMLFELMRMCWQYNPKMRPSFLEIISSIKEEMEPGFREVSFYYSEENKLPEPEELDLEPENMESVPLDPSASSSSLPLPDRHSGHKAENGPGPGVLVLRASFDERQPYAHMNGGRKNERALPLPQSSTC
- Assay Notes: IGF-1R cellular autophosphorylation (DELFIA)
- Experimental: NIH-3T3 cells overexpressing human IGF-1R or IR were plated in 96-well plates (10,000 cells/well) in culture media containing 10% fetal bovine serum and incubated at 37° C. in a 5% CO2 incubator. Twenty four hours post-plating, cells were treated with different concentrations of test compounds ranging from 30 uM to 1.5 nM. […] The fluorescence signal for cells treated with compounds was expressed as percent relative to 100% stimulation (IGF-1 or insulin stimulated signal).
pIC50: −log10 of the molar value.
Value Type: pIC50

Worked examples, 5 compounds total:
1. COc1cc2c(cc1Nc1nc(Nc3cccc(F)c3C(N)=O)c3cc[nH]c3n1)N(C(=O)CN(C)C)CC2 [Example 53]
> 7.00
2. CCCN1CCC=C(c2ccc(Nc3nc(Nc4cccc(F)c4C(N)=O)c4cc[nH]c4n3)c(C)c2)C1 [Example 40]
6.30 to 7.00
3. CN(C)CC(=O)Nc1ccc(F)c(Nc2nc(Nc3ccccc3C(N)=O)c3cc[nH]c3n2)c1 [Example 17]
> 7.00
4. COc1cc(C2CCN(C(C)C)CC2)ccc1Nc1nc(Nc2cc(F)c(F)cc2C(N)=O)c2cc[nH]c2n1 [Example 97]
> 7.00
5. CCN(C)CC(=O)N1CCc2cc(OC)c(Nc3nc(Nc4cccc(F)c4C(N)=O)c4cc[nH]c4n3)cc21 [Example 166]
> 7.00

Give the measured pIC50 of CNC(=O)c1c(F)cc(F)cc1Nc1nc(Nc2cc3c(cc2OC)CCCN3C(=O)CN(C)C)nc2[nH]ccc12 [Example 179] .
> 7.00

Which pIC50 value is on record for COc1cc2c(cc1Nc1nc(Nc3cccc(F)c3C(N)=O)c3cc[nH]c3n1)N(C(=O)CN1CCCCC1)CCC2 [Example 218] ?
> 7.00

If you can, please state the reported pIC50 value of CNC(=O)c1c(F)cccc1Nc1nc(Nc2cc3c(cc2OC)CCN3C(=O)COC)nc2[nH]ccc12 [Example 150] .
< 6.30

Sample COc1cc2c(cc1Nc1nc(Nc3cccc(F)c3C(N)=O)c3cc[nH]c3n1)N(C(=O)Cn1ccnc1)CC2 [Example 145] — what was its pIC50?
< 6.30

Reported pIC50, compound CCCN1CCCC(c2ccc(Nc3nc(Nc4ccccc4C(=O)NC)c4cc[nH]c4n3)c(OC)c2)C1 (stereo not drawn) [Example 24] : ____
6.30 to 7.00
